System: UACC-62 melanoma
assay.notes: NCI tumour cell line growth inhibition, 48 h
Catalogue of TGI readings, one per entry.

N=c1n(CC(=O)NC23CC4CC(CC(C4)C2)C3)c2ccccc2n1CC(=O)NC12CC3CC(CC(C3)C1)C2 ... 3.45 µM

Exam item: Annotate the compound N#C/C=c1/c2ccccc2n2nc3ccccc3c12 with its measured TGI.
Marked response: > 100 µM

Exam item: Annotate the compound Cc1cc(Br)cc(C)c1NC(=O)C(=O)C(C(=O)c1ccncc1)C1OC(=O)c2ccccc21 (stereo not drawn) with its measured TGI.
Marked response: > 100 µM

----------
Test system: SF-295 CNS
assay.notes: NCI tumour cell line growth inhibition, 48 h
assay.metric: GI50

Illustrative cases are given below, each with its answer.
COc1cccc(OC(=O)c2ccc(C(F)(F)F)nc2Nc2c(C)cccc2Cl)c1 ... 17100 nM
Fc1ccc2[nH]cc(-c3nc(-c4c[nH]c5ccncc45)cs3)c2c1 ... 1680 nM

Moving on to the next compound.
Exam item: Annotate the compound O=C1Nc2ccccc2/C1=C\c1cccc(/C=C2/C(=O)Nc3ccccc32)n1 with its measured GI50.
Marked response: 499 nM
